Molecular target: T1, human TREM2 on cells (human, UniProt Q9NZC2 19-230)
T1 sequence: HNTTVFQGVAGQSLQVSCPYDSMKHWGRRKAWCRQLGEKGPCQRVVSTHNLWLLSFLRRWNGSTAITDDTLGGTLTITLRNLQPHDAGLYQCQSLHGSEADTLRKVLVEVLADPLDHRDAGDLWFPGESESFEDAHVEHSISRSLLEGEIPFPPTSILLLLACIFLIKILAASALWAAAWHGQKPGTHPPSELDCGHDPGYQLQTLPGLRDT
Test: cell-based or functional assay
recorded_endpoint: EC50, average X04 plaque intensity, human iPSC-derived microglia plaque assay (FIG. 24C) (nM)
Numeric only. Scale: nM

h3.10C2.v1 hIgG1 N297G (antibody, V domains shown, Human IgG1 N297G; also called h3.10C2.v1.huIgG1.N297G) VH: EVQLVESGGGLVQPGGSLKLSCATSGFPFSNVWMHWVRQASGKGLEWIAHIKAKSDNYATYYAESVKGRFTISRDDSKTTIYLQMNSLKTEDTAVYYCTGLDYWGQGTTVTVSS VL: DVVMTQSPLSLPVTPGEPASISCRSSRSLLTSKGITSLYWYLQKPGQSPQLLIYRMSNLASGVPDRFSGSGSGTDFTLKISRVEAEDVGVYYCAQFLVYPYTFGQGTKVEIK; 11
hPara.09.v2 Q100P (antibody, V domains shown, Human IgG1 N297G in the cell assays; also called huPara.09.v2 Q100P; hPara.09 Q100P) VH: EVQLVESGGGLVQPGGSLKLSCATSGFPFSNVWLHWVRQASGKGPEWVAHIKAKSDNYATYYAESVKGRFTISRDDSKNTVYLQMNSLKTEDTAVYYCTDILEYWGQGTLVTVSS VL: DVVMTQSPLSLPVTPGEPASISCRSSRSLLTSKGITSLYWYLQKPGQSPQLLIYRMSNLASGIPDRFSGSGSGTDFTLKISRVEAEDVGVYYCAQFLVYPYTFGPGTKVEIK; 500
hPara.09.v2 hIgG1 N297G (antibody, V domains shown, also called hPara.09.H5.hIgG1.N297G) VH: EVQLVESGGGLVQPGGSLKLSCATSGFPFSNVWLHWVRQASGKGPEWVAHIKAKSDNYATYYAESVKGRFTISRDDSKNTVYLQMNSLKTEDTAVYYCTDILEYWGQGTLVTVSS VL: DVVMTQSPLSLPVTPGEPASISCRSSRSLLTSKGITSLYWYLQKPGQSPQLLIYRMSNLASGIPDRFSGSGSGTDFTLKISRVEAEDVGVYYCAQFLVYPYTFGQGTKVEIKR; 320

Alright, here's another binder for you.
// sample hPara.09.v2 Q100P/V104L (antibody, human IgG1, V domains shown) VH: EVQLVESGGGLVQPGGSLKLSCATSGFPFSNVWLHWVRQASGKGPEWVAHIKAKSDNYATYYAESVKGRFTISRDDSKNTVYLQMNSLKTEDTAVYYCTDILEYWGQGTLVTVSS VL: DVVMTQSPLSLPVTPGEPASISCRSSRSLLTSKGITSLYWYLQKPGQSPQLLIYRMSNLASGIPDRFSGSGSGTDFTLKISRVEAEDVGVYYCAQFLVYPYTFGPGTKLEIK , its EC50, average X04 plaque intensity, human iPSC-derived microglia plaque assay (FIG. 24C) was 40
